The reported measurements were obtained from paper PMC7909954.

Documented Emax across a set of molecules
# STUDY_TARGET: rKOR (Rattus norvegicus, UniProt P34975)
# EXPERIMENT_NOTES: cell-based
# COND: HEK-293T, read-out: Emax% arrestin recruitment (BRET) rKOR
Express your answer in %, writing the number without its unit.

O=C(N[C@@H]1CCC2C3Cc4ccc(O)c5c4[C@@]2(CCN3CC2CC2)C1O5)c1cccc(I)c1 (stereo partly shown); 77
O=C(N[C@@H]1CC[C@@]2(O)C3Cc4ccc(O)cc4[C@@]2(CCN3CC2CC2)C1)c1cccc(I)c1; 37
O=C(NC1CCC2(O)C3Cc4ccc(O)c5c4C2(CCN3CC2CC2)C1O5)c1cccc(I)c1 (stereo not shown); 133

With those in mind, consider the next molecule.
Entry O=C(NC1C=CC2C3Cc4ccc(O)c5c4C2(CCN3CC2CC2)C1O5)c1cccc(I)c1 (stereo not shown) , Emax reported as 89

* * *

# STUDY_TARGET: mKOR (Mus musculus, UniProt P33534)
# EXPERIMENT_NOTES: biochemical
# COND: EC50 mKOR [35S]GTPγS, ± SEM
pEC50: −log10 of the molar value.
Returns Fulfilled if the recorded pEC50 is greater than or equal to 10, and Not fulfilled otherwise.

Worked cases, answers included:
O=C(N[C@@H]1CC[C@@]2(O)C3Cc4ccc(O)cc4[C@@]2(CCN3CC2CC2)C1)c1cccc(I)c1; Not fulfilled
O=C(NC1C=CC2C3Cc4ccc(O)c5c4C2(CCN3CC2CC2)C1O5)c1cccc(I)c1 (centres unmarked); Fulfilled
CO[C@@]12CC[C@@H](NC(=O)c3cccc(I)c3)C3Oc4c(O)ccc5c4[C@@]31CCN(CC1CC1)C2C5 (some centres unmarked); Not fulfilled

Now let's try a different one.
Q: // inclusive: pEC50 at least 10? input: O=C(NC1CCC2(O)C3Cc4ccc(O)c5c4C2(CCN3CC2CC2)C1O5)c1cccc(I)c1 (centres unmarked)
Ans: Not fulfilled

* * *

# STUDY_TARGET: mMOR (Mus musculus, UniProt P42866)
# EXPERIMENT_NOTES: cell-based
# Set-up: expressed in transfected cells; host or cells: HEK-293T
ASSAY_READOUT: pEC50
In simple prose, pEC50 is minus the logarithm base ten of a concentration in moles per litre.

Examples from the recorded data:
O=C(N[C@@H]1CCC2C3Cc4ccc(O)c5c4[C@@]2(CCN3CC2CC2)C1O5)c1cccc(I)c1 (stereo partly drawn) [MP1202]; 5.50
O=C(NC1CCC2(O)C3Cc4ccc(O)c5c4C2(CCN3CC2CC2)C1O5)c1cccc(I)c1 (stereo not drawn) [IBNtxA]; 4.95

Please fill in: pEC50 reported for O=C(NC1C=CC2C3Cc4ccc(O)c5c4C2(CCN3CC2CC2)C1O5)c1cccc(I)c1 (stereo not drawn) [MP1104] = 9.55

* * *

# STUDY_TARGET: MOR (Homo sapiens, UniProt P35372)
# EXPERIMENT_NOTES: cell-based
# COND: EC50 cAMP inhibition hMOR
ASSAY_READOUT: pEC50
Please note pEC50 is a logarithmic value: minus log10 of concentration in mol/L. Answer with that number alone.

O=C(N[C@@H]1CC[C@@]2(O)C3Cc4ccc(O)cc4[C@@]2(CCN3CC2CC2)C1)c1cccc(I)c1 [MP1601]; 10.00
O=C(NC1CCC2(O)C3Cc4ccc(O)c5c4C2(CCN3CC2CC2)C1O5)c1cccc(I)c1 (centres unmarked) [IBNtxA]; 10.15
O=C(N[C@@H]1CCC2C3Cc4ccc(O)c5c4[C@@]2(CCN3CC2CC2)C1O5)c1cccc(I)c1 (some centres unmarked) [MP1202]; 10.11
CO[C@@]12CC[C@@H](NC(=O)c3cccc(I)c3)C3Oc4c(O)ccc5c4[C@@]31CCN(CC1CC1)C2C5 (some centres unmarked) [MP1305]; 9.92

Proceeding to the next molecule to report its pEC50.
Query O=C(NC1C=CC2C3Cc4ccc(O)c5c4C2(CCN3CC2CC2)C1O5)c1cccc(I)c1 (centres unmarked) [MP1104] on MOR (Homo sapiens, UniProt P35372); pEC50 returned: 10.13

* * *

// endpoint LogRA BRET-Arr rKOR / system rKOR (Rattus norvegicus, UniProt P34975)
# answer = number (no unit)

Here's what some known entries look like.
O=C(N[C@@H]1CCC2C3Cc4ccc(O)c5c4[C@@]2(CCN3CC2CC2)C1O5)c1cccc(I)c1 (stereo partly shown) [MP1202]; 8.791
O=C(NC1CCC2(O)C3Cc4ccc(O)c5c4C2(CCN3CC2CC2)C1O5)c1cccc(I)c1 (stereo not shown) [IBNtxA]; 8.846
O=C(NC1C=CC2C3Cc4ccc(O)c5c4C2(CCN3CC2CC2)C1O5)c1cccc(I)c1 (stereo not shown) [MP1104]; 8.84

Item: O=C(N[C@@H]1CC[C@@]2(O)C3Cc4ccc(O)cc4[C@@]2(CCN3CC2CC2)C1)c1cccc(I)c1 [MP1601] | LogRA BRET-Arr rKOR: 7.113

* * *

Items are presented alongside their recorded EC50.
# STUDY_TARGET: mMOR (Mus musculus, UniProt P42866)
# EXPERIMENT_NOTES: biochemical
# COND: EC50 mMOR [35S]GTPγS, ± SEM
Return type: number; implicit unit pM.

Please review the entries below; each comes with its answer.
O=C(N[C@@H]1CCC2C3Cc4ccc(O)c5c4[C@@]2(CCN3CC2CC2)C1O5)c1cccc(I)c1 (some centres unmarked); 320
CO[C@@]12CC[C@@H](NC(=O)c3cccc(I)c3)C3Oc4c(O)ccc5c4[C@@]31CCN(CC1CC1)C2C5 (some centres unmarked); 700
O=C(NC1CCC2(O)C3Cc4ccc(O)c5c4C2(CCN3CC2CC2)C1O5)c1cccc(I)c1 (centres unmarked); 490
O=C(NC1C=CC2C3Cc4ccc(O)c5c4C2(CCN3CC2CC2)C1O5)c1cccc(I)c1 (centres unmarked); 210

Continue with the next compound.
Assay mMOR (Mus musculus, UniProt P42866), sample "O=C(N[C@@H]1CC[C@@]2(O)C3Cc4ccc(O)cc4[C@@]2(CCN3CC2CC2)C1)c1cccc(I)c1" , EC50 read: 500

* * *

# STUDY_TARGET: MOR (Homo sapiens, UniProt P35372)
# EXPERIMENT_NOTES: cell-based
# COND: pEC50 cAMP inhibition hMOR
ASSAY_READOUT: EC50 (nM)
Reply with just the number (in nM).

Value of measured EC50 for the entry NCc1cccc(C(=O)N[C@@H]2CCC3C4Cc5ccc(O)c6c5[C@@]3(CCN4CC3CC3)C2O6)c1 (stereo partly shown) : 0.0339

Quick note, EC50 for "O=C(N[C@@H]1CC[C@@]2(O)C3Cc4ccc(O)cc4[C@@]2(CCN3CC2CC2)C1)c1cccc(I)c1" landed at 0.102

Data point: "NCc1ccc(C(=O)N[C@@H]2CC[C@H]3[C@H]4Cc5ccc(O)c6c5[C@@]3(CCN4CC3CC3)[C@H]2O6)cc1" ; EC50 = 0.245

// recorded EC50 for "O=C(N[C@@H]1CC[C@H]2[C@H]3Cc4ccc(O)c5c4[C@@]2(CCN3CC2CC2)[C@H]1O5)c1cccc(CO)c1" : 0.155

* * *

Reported Emax values for the following compounds.
# STUDY_TARGET: mDOR (Mus musculus, UniProt P32300)
# EXPERIMENT_NOTES: cell-based
# COND: HEK-293T, read-out: Emax% arrestin recruitment (BRET) mDOR
Kindly answer with a numeric value in %, unit omitted.

Check out these entries, answers already filled in.
O=C(N[C@@H]1CC[C@@]2(O)C3Cc4ccc(O)cc4[C@@]2(CCN3CC2CC2)C1)c1cccc(I)c1 [MP1601]; 16
O=C(NC1CCC2(O)C3Cc4ccc(O)c5c4C2(CCN3CC2CC2)C1O5)c1cccc(I)c1 (stereo not shown) [IBNtxA]; 88
O=C(N[C@@H]1CCC2C3Cc4ccc(O)c5c4[C@@]2(CCN3CC2CC2)C1O5)c1cccc(I)c1 (stereo partly shown) [MP1202]; 26

API: the following record is the query input.
Emax reading for O=C(NC1C=CC2C3Cc4ccc(O)c5c4C2(CCN3CC2CC2)C1O5)c1cccc(I)c1 (stereo not shown) [MP1104] : 40

* * *

# STUDY_TARGET: MOR (Homo sapiens, UniProt P35372)
ASSAY_READOUT: ΔΔlog RA (cAMP-Tango) hMOR
Reply with just the number.

O=C(NC1C=CC2C3Cc4ccc(O)c5c4C2(CCN3CC2CC2)C1O5)c1cccc(I)c1 (centres unmarked); -0.24
CO[C@@]12CC[C@@H](NC(=O)c3cccc(I)c3)C3Oc4c(O)ccc5c4[C@@]31CCN(CC1CC1)C2C5 (some centres unmarked); 1.059
O=C(N[C@@H]1CC[C@@]2(O)C3Cc4ccc(O)cc4[C@@]2(CCN3CC2CC2)C1)c1cccc(I)c1; 0.57
O=C(N[C@@H]1CCC2C3Cc4ccc(O)c5c4[C@@]2(CCN3CC2CC2)C1O5)c1cccc(I)c1 (some centres unmarked); 1.49

Okay, next one:
Note to self: ΔΔlog RA (cAMP-Tango) hMOR recorded for O=C(NC1CCC2(O)C3Cc4ccc(O)c5c4C2(CCN3CC2CC2)C1O5)c1cccc(I)c1 (centres unmarked) was 1.38
